- target: T1, human IL-18BP (Homo sapiens, UniProt O95998)
- T1 construct: His
- T1 sequence (O95998 31-194): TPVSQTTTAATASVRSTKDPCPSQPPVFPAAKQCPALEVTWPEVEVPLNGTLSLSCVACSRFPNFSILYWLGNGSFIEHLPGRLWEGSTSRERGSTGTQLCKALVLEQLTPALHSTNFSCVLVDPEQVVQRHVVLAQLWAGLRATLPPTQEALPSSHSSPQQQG
- assay.protocol: IL-18BP binding alphaLISA assay (Example 4, used in Example 22B)
- test.conditions: IL-18BP AlphaLISA

| molecule | Kd [nM] |
| --- | --- |
| C161: IL-18 polypeptide: K8R, V11I, C38A, C76A, Q103E, C127A (protein) YFGKLESRLSIIRNLNDQVLFIDQGNRPLFEDMTDSDARDNAPRTIFIISMYKDSQPRGMAVTISVKCEKISTLSAENKIISFKEMNPPDNIKDTKSDIIFFERSVPGHDNKMQFESSSYEGYFLAAEKERDLFKLILKKEDELGDRSIMFTVQNED | 0.06 |
| 35 (protein) GAGKLKSKLSVIRNLNDQVLFIDQGNRPLFEDMTDSDCRDNAPRTIFIISGYAAAQPRGMAVAISVKCEKISTLSCENKIISFKEMNPPDNIKDTKSDIIFFQRSVPGHDNKMQFESSSYEGYFLACEKERDLFKLILKKEDELGDRSIMFTVQNED | 969 |
